Molecular target: Lp-PLA2 in human plasma (Homo sapiens)
Construct: from tissue; host or cells: pooled human plasma
Assay: (3a) Lp-PLA2 human plasma Thio-PAF assay
Format: biochemical
Settings: (3a) Thio-PAF assay, pooled human plasma; Examples 1-265 and 413-430 were tested here; read-out: pIC50 in the Lp-PLA2 human plasma assay (converted)
QUANTITY: IC50

// worked examples, IC50 included
> print(dat)
                                   compound  quantity  measurement
1  CCn1cc(Oc2c(F)cc(COc3cc4n(c(=O)n3)C[C@@H]3COCCN43)cc2F)cn1      IC50      ≤ 10 µM
2  O=c1nc(OCc2cc(F)c(F)c(F)c2)cc2n1C[C@H]1CCCCN21      IC50     ≤ 0.1 µM
3  O=c1nc(OCc2cc(F)c(OC3(CCF)CC3)c(F)c2)cc2n1C[C@H]1CCOCN21      IC50      ≤ 10 µM
4  N#Cc1cc(Oc2ccc(COc3cc4n(c(=O)n3)CC3CCCCN43)cc2F)ccc1Cl (centres unmarked)      IC50     ≤ 0.1 µM
5  O=c1nc(OCc2cc(F)c(F)c(Cl)c2)cc2n1CC1CCCCN21 (centres unmarked)      IC50      ≤ 10 µM
6  O=c1nc(OCc2ccc(Oc3ccc(F)c(F)c3)c(F)c2)cc2n1CC1CCCCN21 (centres unmarked)      IC50      ≤ 10 µM
7  Cc1cc(Oc2c(F)cc(COc3cc4n(c(=O)n3)C[C@H]3COCN43)cc2F)ccn1      IC50      ≤ 10 µM

Continue with the next compound.
Task: Report IC50 for Cc1cc(Oc2c(F)cc(COc3cc4n(c(=O)n3)C[C@@H]3COCCN43)cc2F)ccn1 please.
Output: ≤ 0.1 µM

----------
Biological target: recombinant human Lp-PLA2 (Homo sapiens, UniProt Q13093)
Assay: (1a) PED6 assay, recombinant human Lp-PLA2 (rhLp-PLA2)
Format: biochemical
Settings: Examples 1-167 and 413-430 were tested here, one experiment or average of multiple experiments, read-out: rhLp-PLA2 (pIC50) (converted)
QUANTITY: IC50

Recorded IC50, per entry:
> print(dat)
                                   compound  measurement
1  O=c1nc(OCc2ccc(Oc3cncc(C(F)(F)F)c3)c(F)c2)cc2n1C[C@@H]1CCCCN21 [Example E42]       ≤ 1 nM
2  Cc1cc(Oc2c(F)cc(COc3cc4n(c(=O)n3)C[C@H]3COCCN43)cc2F)ccn1 [Example E124]     0.501 nM

Task: Give IC50 (recombinant human Lp-PLA2 (Homo sapiens, UniProt Q13093)) of the following compound: CN1c2cc(OCc3cccc(F)c3F)nc(=O)n2CC12CCCCC2 [Example 425]
Output: ≤ 100 nM

Task: Same lookup for Cc1ncc(Oc2c(F)cc(COc3cc4n(c(=O)n3)C[C@@H]3COCN43)cc2F)cn1 [Example E159] , please.
Output: ≤ 100 nM

----------
Target: recombinant human Lp-PLA2 (Homo sapiens)
Sequence (Q13093 22-441): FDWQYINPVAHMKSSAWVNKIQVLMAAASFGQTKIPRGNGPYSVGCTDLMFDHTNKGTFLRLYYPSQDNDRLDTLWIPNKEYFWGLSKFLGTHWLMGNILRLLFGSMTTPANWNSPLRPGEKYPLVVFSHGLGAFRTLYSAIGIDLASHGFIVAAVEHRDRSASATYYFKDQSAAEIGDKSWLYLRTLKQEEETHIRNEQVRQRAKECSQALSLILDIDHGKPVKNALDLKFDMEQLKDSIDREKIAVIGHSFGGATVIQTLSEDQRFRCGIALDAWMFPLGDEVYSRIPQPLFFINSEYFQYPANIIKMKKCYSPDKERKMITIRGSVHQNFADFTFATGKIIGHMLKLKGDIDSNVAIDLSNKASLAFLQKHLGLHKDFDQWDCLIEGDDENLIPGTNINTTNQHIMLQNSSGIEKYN
Experiment: (1a) PED6 assay, recombinant human Lp-PLA2 (rhLp-PLA2)
Assay type: biochemical
Conditions: Examples 1-167 and 413-430 were tested here, one experiment or average of multiple experiments, read-out: rhLp-PLA2 (pIC50) (converted)
QUANTITY: IC50

Worked cases, IC50 given:
> print(dat)
                        structure.as.smiles  quantity  measurement
1  O=c1nc(OCc2ccc(F)c(F)c2)cc2n1C[C@H]1CCCCN21      IC50     ≤ 100 nM
2  O=c1nc(OCc2cccc(F)c2F)cc2n1C[C@H]1CCCCN21      IC50     ≤ 100 nM
3  CN1c2cc(OCc3cc(F)c(F)c(F)c3)nc(=O)n2CC12CCC2      IC50     ≤ 100 nM

Task: What value of IC50 has been recorded for this entry: O=c1nc(OCc2cc(F)c(Oc3ccnc(C(F)(F)F)c3)c(F)c2)cc2n1C[C@H]1COCN21
Output: ≤ 1 nM
